This collection of values is drawn from patent US12258344B2.

- system-name: BaF3 (EGFR-D770insSVD) (Homo sapiens, UniProt P00533, DUP768-770, cells depend on it)
- test-method-notes: Test 2: BaF3 (EGFR-D770insSVD) cell proliferation test
- Assay type: cell-based
- condition-label: 72 hours, Cell Titer-Glo, read-out: Test 2 - IC50
assay-endpoint: log10 GI50 (log10 of the value in nM)
# log10 transformed; quantity=GI50; unit=nM

Sample answers from the record:
compound: C=CC(=O)Nc1cc(Nc2ncnc(-c3cn(C)c4ccc(F)cc34)n2)c(OCC(F)(F)F)cc1N(C)CCN(C)C [Example 15]
log10 GI50: 1.39
//
compound: C=CC(=O)Nc1cc(Nc2nccc(-c3cnc4c(F)cccn34)n2)c(OC)cc1N(C)CCN(C)C [Example 5]
log10 GI50: 2.16
//
compound: C=CC(=O)Nc1cc(Nc2ncnc(-c3cn(C)c4ccc(F)cc34)n2)c(OC)cc1N(C)CCN(C)C [Example 11]
log10 GI50: 1.35

For BaF3 (EGFR-D770insSVD) (Homo sapiens, UniProt P00533, DUP768-770, cells depend on it), provide log10 GI50 of C=CC(=O)Nc1cc(Nc2nccc(-c3cnc4c(C(F)(F)F)cccn34)n2)c(OC)cc1N(C)CCN(C)C [Example 6] please.
2.71

For BaF3 (EGFR-D770insSVD) (Homo sapiens, UniProt P00533, DUP768-770, cells depend on it), provide log10 GI50 of C=CC(=O)Nc1cc(Nc2ncnc(-c3cn(C)c4ccc(Cl)cc34)n2)c(OC)cc1N(C)CCN(C)C [Example 9] please.
1.69

For BaF3 (EGFR-D770insSVD) (Homo sapiens, UniProt P00533, DUP768-770, cells depend on it), provide log10 GI50 of C=CC(=O)Nc1cc(Nc2ncnc(-c3cn(C)c4cc(Cl)c(OC)cc34)n2)c(OC)cc1N(C)CCN(C)C [Example 10] please.
2.75

For BaF3 (EGFR-D770insSVD) (Homo sapiens, UniProt P00533, DUP768-770, cells depend on it), provide log10 GI50 of C=CC(=O)Nc1cc(Nc2ncnc(-c3cn(C)c4ccc(F)cc34)n2)c(OC(F)F)cc1N(C)CCN(C)C [Example 14] please.
1.21

###

- system-name: BaF3 (EGFR/D770insSVD) (Homo sapiens, UniProt P00533, DUP768-770, cells depend on it)
- Construct: Test 13 IC50 (nM); other: BaF3 (EGFR/D770insSVD), 72 hours, Cell Titer-Glo
- Sequence (P00533 with tags, fused parts or gaps DUP768-770): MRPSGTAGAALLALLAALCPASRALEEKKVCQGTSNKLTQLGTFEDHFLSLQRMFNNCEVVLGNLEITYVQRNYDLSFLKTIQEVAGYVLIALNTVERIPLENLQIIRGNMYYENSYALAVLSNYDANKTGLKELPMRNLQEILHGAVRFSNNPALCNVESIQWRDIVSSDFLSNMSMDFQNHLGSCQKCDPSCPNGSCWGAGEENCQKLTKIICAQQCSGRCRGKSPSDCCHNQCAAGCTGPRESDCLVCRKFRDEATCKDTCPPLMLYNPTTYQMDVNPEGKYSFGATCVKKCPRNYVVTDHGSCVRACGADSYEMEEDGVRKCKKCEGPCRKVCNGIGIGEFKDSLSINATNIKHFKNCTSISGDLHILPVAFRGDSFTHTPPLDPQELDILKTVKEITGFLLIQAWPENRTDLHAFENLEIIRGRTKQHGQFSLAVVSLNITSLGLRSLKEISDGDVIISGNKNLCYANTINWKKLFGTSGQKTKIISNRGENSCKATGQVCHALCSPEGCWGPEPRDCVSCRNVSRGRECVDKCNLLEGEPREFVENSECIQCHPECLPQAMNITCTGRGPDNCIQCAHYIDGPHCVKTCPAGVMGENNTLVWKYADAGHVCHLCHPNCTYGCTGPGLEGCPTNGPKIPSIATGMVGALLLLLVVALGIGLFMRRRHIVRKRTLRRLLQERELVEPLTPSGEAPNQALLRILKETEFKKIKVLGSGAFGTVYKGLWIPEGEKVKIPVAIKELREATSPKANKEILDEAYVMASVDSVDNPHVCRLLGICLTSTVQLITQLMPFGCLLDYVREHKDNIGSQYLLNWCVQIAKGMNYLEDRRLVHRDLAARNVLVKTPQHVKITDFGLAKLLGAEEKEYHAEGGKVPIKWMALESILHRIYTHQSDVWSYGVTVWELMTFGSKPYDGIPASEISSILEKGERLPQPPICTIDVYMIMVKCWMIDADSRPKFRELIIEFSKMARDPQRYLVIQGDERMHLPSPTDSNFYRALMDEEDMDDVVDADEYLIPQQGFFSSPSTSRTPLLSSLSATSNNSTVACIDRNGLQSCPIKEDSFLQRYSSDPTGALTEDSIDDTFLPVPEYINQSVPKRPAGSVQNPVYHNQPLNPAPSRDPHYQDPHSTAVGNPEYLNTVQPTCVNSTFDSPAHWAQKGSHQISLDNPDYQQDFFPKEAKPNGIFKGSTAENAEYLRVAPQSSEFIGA
- test-method-notes: Test 13: EGFR exon 20 inserted D770insSVD cell proliferation test
- Format: cell-based
- condition-label: BaF3 (EGFR/D770insSVD), 72 hours, Cell Titer-Glo; read-out: Test 13 IC50
assay-endpoint: log10 GI50 (log10 of the value in nM)
# log10 transformed; quantity=GI50; unit=nM

compound: C=CC(=O)Nc1cc(Nc2nccc(-c3cn(C)c4ccccc34)n2)c(OC(F)F)cc1N(C)CCNC
log10 GI50: 2.15
//
compound: C=CC(=O)Nc1cc(Nc2ncnc(-c3cn(C)c4ccccc34)n2)c(OC)cc1N(C)CCN(C)C
log10 GI50: 1.55
//
compound: Cc1cc(C(=O)Nc2nc3cccc(Cl)c3n2[C@@H]2CCCCN(C(=O)/C=C/CN(C)C)C2)ccn1
log10 GI50: 2.98
//
compound: C=CC(=O)Nc1cc(Nc2nccc(-c3cn(C)c4ccc(F)cc34)n2)c(OC(F)F)cc1N(C)CCNC
log10 GI50: 1.95
//
compound: C=CC(=O)Nc1cc(Nc2nccc(-c3cn(C)c4ccccc34)n2)c(OCC(F)(F)F)nc1N(C)CCN(C)C
log10 GI50: 1.69
//
compound: C=CC(=O)Nc1cc(Nc2nccc(-c3cn(C)c4ccccc34)n2)c(OCC)cc1N(C)CCN(C)C
log10 GI50: 2.34

If you can, please state the reported log10 GI50 value of C=CC(=O)Nc1cc(Nc2nccc(-c3cn(C4CC4)c4ccccc34)n2)c(OC)cc1N(C)CCN(C)C [Compound 29] .
2.38

If you can, please state the reported log10 GI50 value of C=CC(=O)Nc1cc(Nc2nccc(-n3cc(CN(C)C)c(-c4ccccc4)n3)n2)c(OC)cc1N1CCOCC1 .
2.78

If you can, please state the reported log10 GI50 value of C=CC(=O)Nc1cc(Nc2nccc(-c3cn(C)c4ccc(F)cc34)n2)c(OC)cc1N(C)CCN(C)C .
1.91

If you can, please state the reported log10 GI50 value of C=CC(=O)Nc1cc(Nc2ncnc(-c3cnc4c(C)cccn34)n2)c(OC)cc1N(C)CCN(C)C .
2.16

###

- system-name: BaF3 (HER2-P780insGSP) (Homo sapiens, UniProt P04626, DUP778-780, cells depend on it)
- Sequence (P04626 with tags, fused parts or gaps DUP778-780): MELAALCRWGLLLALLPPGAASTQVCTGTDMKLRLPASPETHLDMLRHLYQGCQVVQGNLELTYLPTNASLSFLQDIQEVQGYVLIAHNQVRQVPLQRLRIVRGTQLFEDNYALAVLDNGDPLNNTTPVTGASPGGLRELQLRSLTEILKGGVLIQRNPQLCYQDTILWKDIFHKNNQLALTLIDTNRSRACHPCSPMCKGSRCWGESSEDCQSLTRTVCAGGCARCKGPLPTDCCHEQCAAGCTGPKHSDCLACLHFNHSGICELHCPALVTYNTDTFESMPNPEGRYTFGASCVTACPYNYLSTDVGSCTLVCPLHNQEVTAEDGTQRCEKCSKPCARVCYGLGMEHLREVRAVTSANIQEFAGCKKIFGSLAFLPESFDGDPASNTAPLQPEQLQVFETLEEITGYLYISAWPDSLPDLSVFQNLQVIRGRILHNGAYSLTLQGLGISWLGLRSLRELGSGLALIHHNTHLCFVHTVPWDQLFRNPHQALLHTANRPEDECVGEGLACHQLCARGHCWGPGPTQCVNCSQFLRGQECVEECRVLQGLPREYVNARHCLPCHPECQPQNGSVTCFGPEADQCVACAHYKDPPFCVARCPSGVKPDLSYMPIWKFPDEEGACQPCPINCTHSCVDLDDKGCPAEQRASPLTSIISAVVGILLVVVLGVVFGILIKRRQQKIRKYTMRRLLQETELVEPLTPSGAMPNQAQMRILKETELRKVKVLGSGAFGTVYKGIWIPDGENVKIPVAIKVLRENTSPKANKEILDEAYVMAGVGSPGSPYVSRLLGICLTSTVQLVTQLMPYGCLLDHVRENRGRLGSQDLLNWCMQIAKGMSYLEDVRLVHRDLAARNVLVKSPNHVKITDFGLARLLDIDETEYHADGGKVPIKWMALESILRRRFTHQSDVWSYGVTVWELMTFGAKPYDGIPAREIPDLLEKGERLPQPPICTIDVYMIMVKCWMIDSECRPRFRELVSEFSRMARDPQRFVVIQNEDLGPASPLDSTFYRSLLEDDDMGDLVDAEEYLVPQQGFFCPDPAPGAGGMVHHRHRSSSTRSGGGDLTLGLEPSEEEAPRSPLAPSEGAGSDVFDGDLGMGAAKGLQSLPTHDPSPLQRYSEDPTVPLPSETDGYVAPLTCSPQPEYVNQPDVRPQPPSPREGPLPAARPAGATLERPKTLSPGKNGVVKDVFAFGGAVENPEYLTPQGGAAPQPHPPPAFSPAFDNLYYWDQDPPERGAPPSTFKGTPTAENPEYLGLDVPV
- test-method-notes: Test 10: BaF3 (HER2-P780insGSP) cell proliferation test
- Format: cell-based
- condition-label: 72 hours, Cell Titer-Glo, read-out: Test 10 - IC50
assay-endpoint: GI50 (nM)
Please state the figure in nM; there is no need to write the unit.

Sample answers from the record:
compound: C=CC(=O)Nc1cc(Nc2ncnc(-c3cn(C)c4ccc(F)cc34)n2)c(OC(F)F)cc1N(C)CCN(C)C [Example 14]
system-name: BaF3 (HER2-P780insGSP) (Homo sapiens, UniProt P04626, DUP778-780, cells depend on it)
GI50 (nM): 6.92

compound: C=CC(=O)Nc1cc(Nc2ncnc(-c3cn(C)c4cc(Cl)c(OC)cc34)n2)c(OC)cc1N(C)CCN(C)C [Example 10]
system-name: BaF3 (HER2-P780insGSP) (Homo sapiens, UniProt P04626, DUP778-780, cells depend on it)
GI50 (nM): 32.6

compound: C=CC(=O)Nc1cc(Nc2nccc(-c3cn(C)c4ccccc34)n2)c(OC)cc1N(C)CCN(C)C [Osimertinib (AZD9291), Osimertinib, reference compound]
system-name: BaF3 (HER2-P780insGSP) (Homo sapiens, UniProt P04626, DUP778-780, cells depend on it)
GI50 (nM): 32.2

compound: C=CC(=O)Nc1cc(Nc2ncnc(-c3cn(C)c4ccc(F)cc34)n2)c(OC)cc1N(C)CCN(C)C [Example 11]
system-name: BaF3 (HER2-P780insGSP) (Homo sapiens, UniProt P04626, DUP778-780, cells depend on it)
GI50 (nM): 8.76

compound: C=CC(=O)Nc1cc(Nc2ncnc(-c3cn(C)c4ccc(Cl)cc34)n2)c(OC)cc1N(C)CCN(C)C [Example 9]
system-name: BaF3 (HER2-P780insGSP) (Homo sapiens, UniProt P04626, DUP778-780, cells depend on it)
GI50 (nM): 7.59

compound: C=CC(=O)Nc1cc(Nc2ncnc(Oc3ccc(Cl)c(OC)c3)n2)c(OC)cc1N(C)CCN(C)C [Example 12]
system-name: BaF3 (HER2-P780insGSP) (Homo sapiens, UniProt P04626, DUP778-780, cells depend on it)
GI50 (nM): 47.8

If you can, please state the reported GI50 value of C=CC(=O)Nc1cc(Nc2ncnc(-c3cn(C)c4ccc(OC)cc34)n2)c(OC)cc1N(C)CCN(C)C [Example 8] .
11.6

If you can, please state the reported GI50 value of C=CC(=O)Nc1cc(Nc2ncnc(Oc3ccc(Cl)c(OC)c3)n2)c(OC(F)F)cc1N(C)CCN(C)C [Example 13] .
29.6

If you can, please state the reported GI50 value of C=CC(=O)Nc1cc(Nc2ncnc(-c3cn(C)c4ccc(F)cc34)n2)c(OCC(F)(F)F)cc1N(C)CCN(C)C [Example 15] .
6.58

###

- system-name: BaF3 (EGFR-L861Q) (Homo sapiens, UniProt P00533, L861Q, cells depend on it)
- Sequence (P00533 whole entry L861Q): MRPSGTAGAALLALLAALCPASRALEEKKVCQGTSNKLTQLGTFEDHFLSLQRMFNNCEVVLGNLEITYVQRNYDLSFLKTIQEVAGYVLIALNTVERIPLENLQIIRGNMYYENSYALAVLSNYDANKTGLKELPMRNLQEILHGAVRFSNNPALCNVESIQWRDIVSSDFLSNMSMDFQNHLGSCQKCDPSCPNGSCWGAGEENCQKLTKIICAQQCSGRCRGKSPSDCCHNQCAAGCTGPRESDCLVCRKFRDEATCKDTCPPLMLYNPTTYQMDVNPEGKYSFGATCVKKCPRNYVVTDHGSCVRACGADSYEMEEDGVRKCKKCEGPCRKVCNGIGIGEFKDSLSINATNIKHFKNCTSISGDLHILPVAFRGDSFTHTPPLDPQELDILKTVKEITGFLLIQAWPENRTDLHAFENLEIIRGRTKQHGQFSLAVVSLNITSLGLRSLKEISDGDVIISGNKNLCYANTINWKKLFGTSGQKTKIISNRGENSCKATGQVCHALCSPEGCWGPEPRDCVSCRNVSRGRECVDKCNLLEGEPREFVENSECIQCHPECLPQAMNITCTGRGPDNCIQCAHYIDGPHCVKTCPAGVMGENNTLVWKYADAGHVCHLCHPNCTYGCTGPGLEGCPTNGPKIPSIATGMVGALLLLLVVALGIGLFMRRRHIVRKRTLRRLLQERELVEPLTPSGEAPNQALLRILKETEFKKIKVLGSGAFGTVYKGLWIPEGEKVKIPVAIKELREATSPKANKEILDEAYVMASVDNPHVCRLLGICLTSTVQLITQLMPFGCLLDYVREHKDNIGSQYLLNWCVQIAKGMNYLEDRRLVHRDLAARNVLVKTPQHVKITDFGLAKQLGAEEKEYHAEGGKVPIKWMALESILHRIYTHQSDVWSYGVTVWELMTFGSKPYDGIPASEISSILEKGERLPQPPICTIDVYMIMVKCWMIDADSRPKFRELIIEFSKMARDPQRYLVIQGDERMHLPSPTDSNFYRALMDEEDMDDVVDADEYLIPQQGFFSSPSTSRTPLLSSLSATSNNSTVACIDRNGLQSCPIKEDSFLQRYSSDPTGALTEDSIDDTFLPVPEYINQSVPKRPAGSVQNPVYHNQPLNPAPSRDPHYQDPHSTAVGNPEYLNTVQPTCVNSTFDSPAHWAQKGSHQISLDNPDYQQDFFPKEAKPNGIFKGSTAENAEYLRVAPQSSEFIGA
- test-method-notes: Test 8: BaF3 (EGFR-L861Q) cell proliferation test
- Type: cell-based
- condition-label: 72 hours, Cell Titer-Glo, read-out: Test 8 - IC50
- Protocol: Test 8: BaF3 (EGFR-L8610) Cell Proliferation Test BaF3 (EGFR-L861Q) was cultured in RPMI1640 medium containing 10% fetal bovine serum and 2 mM glutamine. The cells were grown at 37° C. in a humidified incubator with 5% CO2. The number of viable cells in the culture was measured according to the protocol described in Promega's Cell Titer-Glo Luminescent cell Viability Assay (Promega catalog number #G7570). […]
Please use Fulfilled for GI50 under 20 nM and Not fulfilled for everything else, ties included.

Reference set, count: 4
chemical-string: C=CC(=O)Nc1cc(Nc2ncnc(-c3cn(C)c4ccc(F)cc34)n2)c(OC)cc1N(C)CCN(C)C
system-name: BaF3 (EGFR-L861Q) (Homo sapiens, UniProt P00533, L861Q, cells depend on it)
class-name: Not fulfilled
--
chemical-string: C=CC(=O)Nc1cc(Nc2ncnc(Oc3ccc(Cl)c(OC)c3)n2)c(OC(F)F)cc1N(C)CCN(C)C
system-name: BaF3 (EGFR-L861Q) (Homo sapiens, UniProt P00533, L861Q, cells depend on it)
class-name: Fulfilled
--
chemical-string: C=CC(=O)Nc1cc(Nc2ncnc(-c3cn(C)c4ccc(F)cc34)n2)c(OC(F)F)cc1N(C)CCN(C)C
system-name: BaF3 (EGFR-L861Q) (Homo sapiens, UniProt P00533, L861Q, cells depend on it)
class-name: Fulfilled
--
chemical-string: C=CC(=O)Nc1cc(Nc2ncnc(Oc3ccc(Cl)c(OC)c3)n2)c(OC)cc1N(C)CCN(C)C
system-name: BaF3 (EGFR-L861Q) (Homo sapiens, UniProt P00533, L861Q, cells depend on it)
class-name: Fulfilled

Is it true that GI50 reported for C=CC(=O)Nc1cc(Nc2ncnc(-c3cn(C)c4ccc(Cl)cc34)n2)c(OC)cc1N(C)CCN(C)C is less than 20 nM?
Fulfilled

Is it true that GI50 reported for C=CC(=O)Nc1cc(Nc2ncnc(-c3cn(C)c4ccc(OC)cc34)n2)c(OC)cc1N(C)CCN(C)C is less than 20 nM?
Fulfilled

Is it true that GI50 reported for C=CC(=O)Nc1cc(Nc2ncnc(-c3cn(C)c4ccc(F)cc34)n2)c(OCC(F)(F)F)cc1N(C)CCN(C)C is less than 20 nM?
Fulfilled

Is it true that GI50 reported for C=CC(=O)Nc1cc(Nc2ncnc(-c3cn(C)c4cc(Cl)c(OC)cc34)n2)c(OC)cc1N(C)CCN(C)C is less than 20 nM?
Not fulfilled
